Source of measurements: paper PMC6721765

target: Mushroom tyrosinase (EC 1.14.18.1); assay: Tyrosinase assay (dopachrome formation at 475 nm); conditions: L-DOPA or L-tyrosine as substrate, pH 6.8, 30 °C, mean ± standard deviation from triplicate experiments, read-out: Tyrosinase Inhibitory Activity IC50
propertyMeasured: pIC50
Would you please state pIC50, meaning minus log10 of the concentration in mol/L, as a bare number?

Before answering, review these 2 worked examples.
compound	valueObserved
COc1ccc(C2CC(=O)c3c(O)cc(OC4OC(CO)C(O)C(O)C4O)cc3O2)cc1O (stereo not drawn) [Compound 10, hesperetin 7-β-glucoside]	3.50
COc1ccc([C@@H]2CC(=O)c3c(O)cc(O)cc3O2)cc1O [Compound 8, hesperetin]	3.36

// below: pIC50 requested for another compound
[in] // fetch pIC50 given entry O=c1c(-c2ccc(O)cc2)coc2cc(OC3OC(CO)C(O)C(O)C3O)ccc12 (stereo not drawn) [Compound 2, daidzein 7-β-glucoside]
[out] 3.52
